# target: T1, human MSLN-hFc protein (Acro, Cat. No. MSN-H5253) (human, UniProt Q13421 296-580)
# T1 construct: the method names the coated protein as human MSLN-hFc (Acro); also called human MSLN full-length protein
# T1 sequence (Q13421 other isoform, or with tags, fused parts or gaps limits assumed): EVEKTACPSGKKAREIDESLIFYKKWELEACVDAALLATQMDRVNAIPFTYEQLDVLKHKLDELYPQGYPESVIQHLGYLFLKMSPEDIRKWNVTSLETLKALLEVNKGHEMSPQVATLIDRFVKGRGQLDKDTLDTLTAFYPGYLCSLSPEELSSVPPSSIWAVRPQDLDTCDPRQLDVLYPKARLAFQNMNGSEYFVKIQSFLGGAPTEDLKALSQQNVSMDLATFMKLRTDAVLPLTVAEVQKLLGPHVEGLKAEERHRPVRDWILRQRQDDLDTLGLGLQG
# measurementNotes: ELISA on coated antigen, antibody 10 nM
Reported OD450 values are given for each entry in this list.
Express the result in OD450 but write the number alone.

Here is how some binders turned out for OD450.
binder: F7.44.20-H2 (scFv, not shown: small tags and cut ends, also called S009-F7.44.20 humanized antibody VH1 + VL2) scFv: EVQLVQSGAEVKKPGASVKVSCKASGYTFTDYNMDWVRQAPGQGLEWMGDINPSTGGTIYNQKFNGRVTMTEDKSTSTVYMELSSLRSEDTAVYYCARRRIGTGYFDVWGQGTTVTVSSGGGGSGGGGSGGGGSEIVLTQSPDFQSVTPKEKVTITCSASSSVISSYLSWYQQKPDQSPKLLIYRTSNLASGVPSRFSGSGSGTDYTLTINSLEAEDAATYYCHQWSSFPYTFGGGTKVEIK
reportedEndpoint: OD450
endpointResult: 2.71
--
binder: F7.44.20 (scFv, not shown: small tags and cut ends, also called S009-F7.44.20 (parental variable regions, in the humanized-antibody ELISA)) scFv: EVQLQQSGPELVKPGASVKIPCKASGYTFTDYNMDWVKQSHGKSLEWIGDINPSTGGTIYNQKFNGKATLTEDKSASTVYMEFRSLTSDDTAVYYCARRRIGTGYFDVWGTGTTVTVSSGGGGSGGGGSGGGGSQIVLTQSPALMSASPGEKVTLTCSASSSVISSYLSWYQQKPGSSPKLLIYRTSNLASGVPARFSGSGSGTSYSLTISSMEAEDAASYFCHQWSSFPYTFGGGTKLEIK
reportedEndpoint: OD450
endpointResult: 2.48

Incoming: Specify OD450 for F7.44.20-H10 (scFv, not shown: small tags and cut ends, also called S009-F7.44.20 humanized antibody VH2 + VL2) scFv: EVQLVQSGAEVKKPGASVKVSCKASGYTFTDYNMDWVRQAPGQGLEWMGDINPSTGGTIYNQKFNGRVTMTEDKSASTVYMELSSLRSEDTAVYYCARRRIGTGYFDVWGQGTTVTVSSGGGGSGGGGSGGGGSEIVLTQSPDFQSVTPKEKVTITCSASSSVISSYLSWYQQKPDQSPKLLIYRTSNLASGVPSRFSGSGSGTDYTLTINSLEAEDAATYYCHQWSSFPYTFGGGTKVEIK and stop.
Outgoing: 2.93
